Target: human PDHK2 (hPDHK2) (Homo sapiens (Human), UniProt Q15119)
Assay Overview: Inhibitory action of PDHK activity in vitro (kinase reaction, residual PDH activity measured)
Format: biochemical
Assay Setup: PDHK inhibitory activity, class symbol of IC50
pIC50: −log10 of the molar value.
Reported pIC50 is given for each of the following compounds.

CCOC(=O)CCCOc1ccc2c(c1)C(O)(C(F)(F)F)c1ccccc1-2 (centres unmarked) = 6.00 to 7.00

IN: Item under review: NC(=O)C1CCN(C(=O)c2ccc3c(c2)C(O)(C(F)(F)F)c2ccccc2-3)C1 (centres unmarked) . Reported pIC50?
OUT: < 6.00

IN: Item under review: CN(C)C(=O)c1cc(-c2cnn(C)c2)c2c(c1)C(O)(C(F)(F)F)c1ccccc1-2 (centres unmarked) . Reported pIC50?
OUT: > 7.00

IN: Item under review: O=C(c1ccc2c(c1)C(O)(C(F)(F)F)c1ccccc1-2)N1CCCC1CO (centres unmarked) . Reported pIC50?
OUT: < 6.00

IN: Item under review: O=C(COc1ccc2c(c1)C(O)(C(F)(F)F)c1ccccc1-2)N(CCO)CCO (centres unmarked) . Reported pIC50?
OUT: < 6.00

---

Target: human PDHK2 (hPDHK2) (Homo sapiens (Human), UniProt Q15119)
Assay Overview: Inhibitory action of PDHK activity in vitro (kinase reaction, residual PDH activity measured)
Assay type: biochemical
Assay Setup: read-out: PDHK inhibitory activity IC50
pIC50: −log10 of the molar value.
Record True whenever pIC50 is at 6 or higher; record False when lower.

COC(=O)COc1cc(Cl)c2c(c1)C(O)(C(F)(F)F)c1ccccc1-2 (single isomer, unassigned) [compound 481] = True
O=C(O)COC1CN(C(=O)c2ccc3c(c2)C(O)(C(F)(F)F)c2ccccc2-3)C1 (stereo not shown) [compound 107] = False
OCCn1cc(-c2cc(OCCC34CC5CC(CC(C5)C3)C4)cc3c2-c2ccccc2C3(O)C(F)(F)F)cn1 (stereo not shown) [compound 509] = True
OC1(C(F)(F)F)c2ccccc2-c2c(F)cccc21 (stereo not shown) [compound 11] = False

IN: Kindly determine if pIC50 recorded for OC1(C(F)(F)F)c2ccccc2-c2c(-c3cccnc3)cccc21 (stereo not shown) [compound 146] is above or exactly 6.
OUT: True

IN: Kindly determine if pIC50 recorded for CC(C)c1cc(-c2cnn(C(CO)CO)c2)c2c(c1)C(O)(C(F)(F)F)c1ccccc1-2 (stereo not shown) [compound 654] is above or exactly 6.
OUT: True

IN: Kindly determine if pIC50 recorded for CC(=O)NCCCOc1ccc2c(c1)C(O)(C(F)(F)F)c1ccccc1-2 (stereo not shown) [compound 340] is above or exactly 6.
OUT: False

IN: Kindly determine if pIC50 recorded for Cc1cc(-c2cnn(CCCC(=O)O)c2)c2c(c1)C(O)(C(F)(F)F)c1ccccc1-2 (single isomer, unassigned; (+)) [compound 539] is above or exactly 6.
OUT: True

IN: Kindly determine if pIC50 recorded for OC1(C(F)(F)F)c2ccccc2-c2cccc(F)c21 (stereo not shown) [compound 13] is above or exactly 6.
OUT: False

IN: Kindly determine if pIC50 recorded for CC(C)(C)n1cc(-c2cc(C(N)=O)c3c(c2)C(O)(C(F)(F)F)c2ccccc2-3)cn1 (stereo not shown) [compound 639] is above or exactly 6.
OUT: True

IN: Kindly determine if pIC50 recorded for OC1(C(F)(F)F)c2ccccc2-c2ccc(OCC3CCCCC3)cc21 (stereo not shown) [compound 253] is above or exactly 6.
OUT: False

IN: Kindly determine if pIC50 recorded for O=C1CCCN1CCOc1ccc2c(c1)C(O)(C(F)(F)F)c1ccccc1-2 (stereo not shown) [compound 359] is above or exactly 6.
OUT: True

IN: Kindly determine if pIC50 recorded for CC[Si](CC)(CC)CCc1cc(C(N)=O)c2c(c1)C(O)(C(F)(F)F)c1ccccc1-2 (stereo not shown) [compound 634] is above or exactly 6.
OUT: True

IN: Kindly determine if pIC50 recorded for Cc1cc(-c2cnn(CC(N)=O)c2)c2c(c1)C(O)(C(F)(F)F)c1ccccc1-2 (stereo not shown) [compound 507] is above or exactly 6.
OUT: True

IN: Kindly determine if pIC50 recorded for CC(C)n1cc(-c2cc(OCCCC(=O)O)cc3c2-c2ccccc2C3(O)C(F)(F)F)cn1 (single isomer, unassigned) [compound 553] is above or exactly 6.
OUT: True

---

Target: human PDHK2 (hPDHK2) (Homo sapiens (Human), UniProt Q15119)
Assay Overview: Inhibitory action of PDHK activity in vitro (kinase reaction, residual PDH activity measured)
Type: biochemical
Assay Setup: read-out: PDHK inhibitory activity IC50
pIC50: −log10 of the molar value.
Record Criterion met whenever pIC50 is at 7 or higher; record Criterion not met when lower.

Some solved entries appear below for comparison.
OCCn1cc(-c2cc(OCCC34CC5CC(CC(O)(C5)C3)C4)cc3c2-c2ccccc2C3(O)C(F)(F)F)cn1 (single isomer, unassigned) [compound 542] = Criterion met
NC(=O)CCn1cc(-c2ccc3c(c2)C(O)(C(F)(F)F)c2cccc(CO)c2-3)cn1 (centres unmarked) [compound 601] = Criterion not met
Cn1cc(-c2cc(C(=O)O)cc3c2-c2ccccc2C3(O)C(F)(F)F)cn1 (centres unmarked) [compound 344] = Criterion not met

IN: Kindly determine if pIC50 recorded for OC[C@@H](O)Cn1cc(-c2cc(F)cc3c2-c2ccccc2C3(O)C(F)(F)F)cn1 (single isomer, unassigned) [compound 565] is above or exactly 7.
OUT: Criterion met

IN: Kindly determine if pIC50 recorded for OC1(C(F)(F)F)c2ccccc2-c2c(Cl)cccc21 (centres unmarked) [compound 6] is above or exactly 7.
OUT: Criterion not met

IN: Kindly determine if pIC50 recorded for OC1(C(F)(F)F)c2ccccc2-c2ncccc21 (centres unmarked) [compound 1] is above or exactly 7.
OUT: Criterion not met

IN: Kindly determine if pIC50 recorded for CN(C)C(=O)c1cccc(-c2ccc3c(c2)C(O)(C(F)(F)F)c2ccccc2-3)c1 (centres unmarked) [compound 158] is above or exactly 7.
OUT: Criterion not met

IN: Kindly determine if pIC50 recorded for CC(C)CCOc1ccc2c(c1)C(O)(C(F)(F)F)c1ccccc1-2 (centres unmarked) [compound 276] is above or exactly 7.
OUT: Criterion not met

IN: Kindly determine if pIC50 recorded for COC(=O)COc1ccc2c(c1)C(O)(C(F)(F)F)c1ccccc1-2 (centres unmarked) [compound 357] is above or exactly 7.
OUT: Criterion not met

IN: Kindly determine if pIC50 recorded for OC1(C(F)(F)F)c2ccccc2-c2ccc(-c3ccsc3)cc21 (centres unmarked) [compound 145] is above or exactly 7.
OUT: Criterion not met

---

Target: human PDHK2 (hPDHK2) (Homo sapiens (Human), UniProt Q15119)
Assay Overview: Inhibitory action of PDHK activity in vitro (kinase reaction, residual PDH activity measured)
Type: biochemical
Assay Setup: PDHK inhibitory activity, class symbol of IC50
pIC50: −log10 of the molar value.
Quantity: pIC50

OC1(C(F)(F)F)c2ccccc2-c2ccc(OCC3CCCCC3)cc21 (stereo not drawn) [compound 253] = < 6.00
Cc1cc(-c2cnn(C(C)(C)CC(=O)O)c2)c2c(c1)C(O)(C(F)(F)F)c1ccccc1-2 (single isomer, unassigned) [compound 576] = > 7.00
NC(=O)CCCOc1ccc2c(c1)C(O)(C(F)(F)F)c1ccccc1-2 (stereo not drawn) [compound 280] = < 6.00

IN: Item under review: CC(=O)Nc1ccc2c(c1)C(O)(C(F)(F)F)c1ccccc1-2 (stereo not drawn) [compound 22] . Reported pIC50?
OUT: < 6.00

IN: Item under review: Cc1ccccc1-c1ccc2c(c1)C(O)(C(F)(F)F)c1ccccc1-2 (stereo not drawn) [compound 151] . Reported pIC50?
OUT: < 6.00

IN: Item under review: CCOC(=O)c1ccc(-c2ccc3c(c2)C(O)(C(F)(F)F)c2ccccc2-3)cc1 (stereo not drawn) [compound 175] . Reported pIC50?
OUT: 6.00 to 7.00

IN: Item under review: O=C(O)c1ccc(-c2ccc3c(c2)C(O)(C(F)(F)F)c2ccccc2-3)cc1 (stereo not drawn) [compound 188] . Reported pIC50?
OUT: 6.00 to 7.00

IN: Item under review: CN(C)C(=O)c1ccc(-c2ccc3c(c2)C(O)(C(F)(F)F)c2ccccc2-3)cc1 (stereo not drawn) [compound 192] . Reported pIC50?
OUT: 6.00 to 7.00

IN: Item under review: O=C(c1ccc2c(c1)C(O)(C(F)(F)F)c1ccccc1-2)C1CCCC1 (stereo not drawn) [compound 109] . Reported pIC50?
OUT: < 6.00

IN: Item under review: Cc1ccc(-c2ccc3c(c2)C(O)(C(F)(F)F)c2ccccc2-3)cc1 (stereo not drawn) [compound 181] . Reported pIC50?
OUT: < 6.00
